Reference source: ChEMBL document CHEMBL3272119

Below, each entry is listed alongside its reported ED50.
target: Beta-2 adrenergic receptor (Cavia porcellus)
condition: Trachea
Description: Agonist activity at beta-2 adrenergic receptor in guinea pig tracheal chain assessed as relaxation of spontaneously contracted tracheal smooth muscle
Numbers only; they are read as µM.

INSERT INTO measurements (molecule, target, measured_result) VALUES
  ('CC(C)(C)NCC(CO)c1ccc(O)c(CO)c1 (centres undefined)', 'Beta-2 adrenergic receptor (Cavia porcellus)', 4.6),
  ('COC(CNC(C)C)c1ccc(O)c(O)c1 (centres undefined)', 'Beta-2 adrenergic receptor (Cavia porcellus)', 1.6);

Exam item: Fill in the recorded ED50 for this molecule, with Beta-2 adrenergic receptor (Cavia porcellus) as test system: CC(C)(C)NCC(CO)c1ccc(O)cc1 (centres undefined)
Marked response: 4.1

Exam item: Same again, this time with CC(C)NCC(O)c1ccc(O)c(O)c1 (centres undefined)
Marked response: 0.0071

Exam item: Same for CC(C)NCC(C)(O)c1ccc(O)c(O)c1 (centres undefined)
Marked response: 3.4

Exam item: Quick one: CC(C)(C)NCC(O)c1ccc(O)c(O)c1 (centres undefined)
Marked response: 0.0013

* * *

Let's go through some ED25 measurements on UniProt B0FL73 together.
Sequence (B0FL73 1-467): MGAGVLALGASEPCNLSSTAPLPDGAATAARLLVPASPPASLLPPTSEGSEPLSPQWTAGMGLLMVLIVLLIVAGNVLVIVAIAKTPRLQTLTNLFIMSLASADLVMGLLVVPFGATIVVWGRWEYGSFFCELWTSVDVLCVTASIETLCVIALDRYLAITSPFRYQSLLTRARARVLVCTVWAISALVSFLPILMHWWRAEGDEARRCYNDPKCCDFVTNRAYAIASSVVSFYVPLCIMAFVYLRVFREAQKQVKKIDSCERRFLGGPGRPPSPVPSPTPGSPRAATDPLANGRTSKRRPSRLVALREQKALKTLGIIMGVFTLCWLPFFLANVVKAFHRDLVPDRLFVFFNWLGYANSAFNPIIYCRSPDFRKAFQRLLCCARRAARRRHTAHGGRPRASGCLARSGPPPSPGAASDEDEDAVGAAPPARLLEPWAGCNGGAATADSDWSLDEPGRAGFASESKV

Examples with their reported ED25 follow.
INSERT INTO results (molecule, measured_result) VALUES
  ('CC(C)(C)NCC(CO)c1ccc(O)c(O)c1 (stereo not drawn)', '9.6 ×10⁻⁸ M'),
  ('CC(C)(C)NCC(CO)c1ccc(O)c(NC(N)=O)c1 (stereo not drawn)', '9.3 µM'),
  ('CC(C)(C)NCC(O)c1ccc(O)c(CO)c1 (stereo not drawn)', '3.1 ×10⁻⁷ M'),
  ('COC(CNC(C)C)c1ccc(O)c(O)c1 (stereo not drawn)', '3 ×10⁻⁷ M'),
  ('CC(C)(C)NCC(CO)c1ccc(O)c(N)c1 (stereo not drawn)', '1.3 µM');

Exam item: Consider the molecule shown here: CC(C)(C)NCC(CO)c1ccc(O)cc1 (stereo not drawn) What is its recorded ED25?
Marked response: 9.8 ×10⁻⁵ M

Exam item: Subsequent entry: CC(C)NCC(O)c1ccc(O)cc1 (stereo not drawn)
Marked response: 7.7 ×10⁻⁸ M

Exam item: Now give it for CC(C)(C)NCC(CO)c1ccc(O)c(CO)c1 (stereo not drawn) too.
Marked response: 4.7 ×10⁻⁵ M

* * *

target: Beta-2 adrenergic receptor (Cavia porcellus) (UniProt Q8K4Z4)
Sequence (Q8K4Z4 whole entry, looked up): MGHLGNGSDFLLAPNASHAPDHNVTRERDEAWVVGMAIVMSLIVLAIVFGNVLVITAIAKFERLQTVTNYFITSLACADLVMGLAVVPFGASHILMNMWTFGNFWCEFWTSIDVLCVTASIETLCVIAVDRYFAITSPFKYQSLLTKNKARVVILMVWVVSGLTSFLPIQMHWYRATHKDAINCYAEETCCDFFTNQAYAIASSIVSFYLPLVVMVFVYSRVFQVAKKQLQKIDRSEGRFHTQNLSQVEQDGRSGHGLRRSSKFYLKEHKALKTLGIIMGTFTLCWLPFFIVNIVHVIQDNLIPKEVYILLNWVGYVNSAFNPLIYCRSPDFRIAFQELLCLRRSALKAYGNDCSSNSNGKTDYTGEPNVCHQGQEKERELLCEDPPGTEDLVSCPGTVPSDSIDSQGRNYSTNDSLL
condition: Trachea
measured-quantity: ED50 (×10⁻⁷ M)
Please respond with the number in ×10⁻⁷ M and leave the unit unwritten.

Study these solved cases before continuing.
INSERT INTO measurements (molecule, quantity_unit, measured_result) VALUES
  ('CC(C)(C)NCC(CO)c1ccc(O)c(N)c1 (stereo not drawn)', '×10⁻⁷ M', 9.6),
  ('CC(C)(C)NCC(CO)c1ccc(O)c(NS(C)(=O)=O)c1 (stereo not drawn)', '×10⁻⁷ M', 6),
  ('CC(C)NCC(O)c1ccc(O)cc1 (stereo not drawn)', '×10⁻⁷ M', 1.1);

Attention now turns to another entry.
Exam item: Entry under review: CC(C)(C)NCC(CO)c1ccc(O)c(NC(N)=O)c1 (stereo not drawn) . Reported ED50?
Marked response: 5.2

* * *

ED50 values by entry
target: Beta-2 adrenergic receptor (Cavia porcellus) (UniProt Q8K4Z4)
condition: Trachea
Number only, in ×10⁻⁸ M; omit the unit.

INSERT INTO assay_data (compound, measured_result) VALUES
  ('CC(C)NCC(O)c1ccc(O)c(NS(C)(=O)=O)c1 (centres undefined)', 2.6),
  ('CC(C)(C)NCC(O)c1ccc(O)c(NC(N)=O)c1 (centres undefined)', 1.9);

Exam item: # input compound: CC(C)(C)NCC(O)c1ccc(O)c(CO)c1 (centres undefined) ; wanted: its ED50
Marked response: 1.1

Exam item: What about CC(C)(C)NCC(CO)c1ccc(O)c(O)c1 (centres undefined) ?
Marked response: 3.3
